Species: Canis familiaris
Experiment: The chronotropic effect tested in vitro by using isolated blood-perfused dog heart preparations
Type: functional, Canis lupus familiaris
REPORTED ENDPOINT: Activity
Numbers only.

MOLECULE	Activity
COc1cccc(CNCC(O)COc2ccc3nc(O)ccc3c2)c1 (stereo not drawn)	0
CN(Cc1ccccn1)CC(O)COc1ccc2nc(O)ccc2c1 (stereo not drawn)	0
CN(Cc1ccccc1)CC(O)COc1ccc2c(c1)CCC(=O)N2 (stereo not drawn)	-0.2

For every item below, please supply its Activity.
1. CN(CC[S+]([O-])c1ccccc1)CC(O)COc1ccc2nc(O)ccc2c1 (stereo not drawn)
2. COc1ccc(CCNCC(O)COc2ccc3nc(O)ccc3c2)cc1OC (stereo not drawn)
3. Oc1ccc2cc(OCC(O)CNCc3ccccn3)ccc2n1 (stereo not drawn)
4. Oc1ccc2cc(OCC(O)CNCc3cccs3)ccc2n1 (stereo not drawn)
5. Oc1ccc2cc(OCC(O)CNCc3ccccc3)ccc2n1 (stereo not drawn)
6. CN(Cc1ccccc1)CC(O)COc1ccc2nc(O)ccc2c1 (stereo not drawn)
7. CN(CCCN(C)c1ccccc1)CC(O)COc1ccc2nc(O)ccc2c1 (stereo not drawn)

Result string:
1. 0
2. -0.5
3. 0
4. 0.8
5. 0
6. 0
7. 0

Please go through the list and note Activity for each molecule.
1. CN(CCN(C)c1ccccc1)CC(O)COc1ccc2nc(O)ccc2c1 (stereo not drawn)
2. CCN(Cc1ccccc1)CC(O)COc1cc(F)c2nc(O)ccc2c1 (stereo not drawn)
3. Cc1ccc(CN(C)CC(O)COc2ccc3nc(O)ccc3c2)cc1 (stereo not drawn)

Result string:
1: 0; 2: 0; 3: 0

The measurements presented in this section are drawn from ChEMBL document CHEMBL1125299.
